Experimental protocol: Partition coefficient (logD1.0)
Assay type: physicochemical
Test conditions: octanol/water, pH 1
Readout kind: logD
In your answer, state the number alone without any accompanying words.

CN(C(=O)C1=C(O)c2ccccc2S(=O)(=O)N1C)c1ccccn1: -0.12

Indicate its recorded logD; the compound in question is `CN1C(C(=O)Nc2ccccn2)=C(O)c2ccccc2S1(=O)=O`
0.63

----------
Overview of recorded Log K-1 for various compounds
Experimental protocol: compound was evaluated for reverse occurs for the rate constant(log K-1) at pH 7.4
Type: ADME
Test conditions: buffer
Peptide text beside a SMILES is read from it.
In your answer, state the number alone without any accompanying words.

Indicate its recorded Log K-1; the compound in question is N[C@@H](Cc1c[nH]c2ccccc12)C(=O)N[C@@H](Cc1ccccc1)C(=O)O (H-Trp-Phe-OH)
-1.74

Indicate its recorded Log K-1; the compound in question is N[C@@H](Cc1ccccc1)C(=O)N[C@@H](Cc1ccccc1)C(=O)O (H-Phe-Phe-OH)
-1.57

Indicate its recorded Log K-1; the compound in question is `CN1C(C(=O)Nc2ccccn2)=C(O)c2ccccc2S1(=O)=O`
-1.75

Indicate its recorded Log K-1; the compound in question is N[C@@H](Cc1c[nH]c2ccccc12)C(=O)N[C@@H](Cc1ccc(O)cc1)C(=O)O (H-Trp-Tyr-OH)
-1.72

Indicate its recorded Log K-1; the compound in question is `c1ccncc1`
-1.7

----------
Experimental protocol: compound was evaluated for rate constant of transfer (log K1) at pH 7.4
Type: ADME
Peptide text beside a SMILES is read from it.
Overview of recorded Log K1 for various molecules
In your answer, state the number alone without any accompanying words.

See these solved cases before continuing.
CN1C(C(=O)Nc2ccccn2)=C(O)c2ccccc2S1(=O)=O: -1.53
Oc1ccccc1: -0.68
c1ccncc1: -0.83
CN(C(=O)C1=C(O)c2ccccc2S(=O)(=O)N1C)c1ccccn1: -1.22
N[C@@H](Cc1c[nH]c2ccccc12)C(=O)N[C@@H](Cc1ccccc1)C(=O)O (H-Trp-Phe-OH): -1.94

Indicate its recorded Log K1; the molecule in question is `CNCc1ccccc1`
-0.78

Indicate its recorded Log K1; the molecule in question is N[C@@H](Cc1c[nH]c2ccccc12)C(=O)N[C@@H](Cc1ccc(O)cc1)C(=O)O (H-Trp-Tyr-OH)
-2.73

Indicate its recorded Log K1; the molecule in question is CC(C)C[C@H](N)C(=O)N[C@@H](Cc1ccccc1)C(=O)O (H-Leu-Phe-OH)
-2.55

----------
Experimental protocol: Pharmacokinetic parameter :half life in humans was reported
Type: ADME, organism-based
Test conditions: human, in vivo; read-out: T1/2 beta (converted)
Returns 1 (yes) if the recorded half-life is greater than or equal to 20 h, and 0 (no) otherwise.

Solved cases below.
CC(C)(C(=O)O)c1ccc(C(=O)CCCN2CCC(OC(c3ccccc3)c3ccccc3)CC2)cc1 [CAREBASTINE]: 0 (no)
COc1ccc(CCN2CCC(Nc3nc4ccccc4n3Cc3ccc(F)cc3)CC2)cc1 [ASTEMIZOLE]: 1 (yes)
CC(C)(C)c1ccc(C(O)CCCN2CCC(C(O)(c3ccccc3)c3ccccc3)CC2)cc1 (configuration not stated) [TERFENADINE]: 1 (yes)
CN(C)CCC(c1ccc(Br)cc1)c1ccccn1 (configuration not stated) [BROMPHENIRAMINE]: 1 (yes)
CN1CCCC(n2nc(Cc3ccc(Cl)cc3)c3ccccc3c2=O)CC1 (configuration not stated) [AZELASTINE]: 1 (yes)

--- query ---
API: above_or_equal(metric=half-life, cutoff=20 h) for item Cc1ccc(/C(=C\CN2CCCC2)c2ccccn2)cc1 [TRIPROLIDINE]
1 (yes)
